# Test system: DU-145 prostate
# assay.procedure: NCI-60 one-dose screen, 48 h
# experimental.conditions: 10 µM unless noted
Compounds without any hit were thinned out: in the full panel of roughly 83,000, 20% have a hit. Calls of active or inactive are those of the source. How the source made its calls: active means growth percent below 10; inactive means the rest.
The reply should be one of these categories: active, inactive

Call for entry COC(=O)c1ccc2oc(NC(=O)c3ccc(N4CCOCC4)c([N+](=O)[O-])c3)nc2c1 :
inactive

What about COc1ccc(Oc2nc(Nc3ccc(N4CCOCC4)nc3)ncc2NC(=O)c2cc(OC)cc(OC)c2)cc1 ?
inactive

Thanks! And C[C@@H]1C(=O)N(C[C@@H](Cc2ccccc2)NC(=O)OCc2ccccc2)[C@]1(Cc1ccccc1)C(=O)OCc1ccccc1 ?
inactive

Here is the next item to consider.
Hi team, can someone confirm the assay call for c1ccc(-c2oc3ccccc3c2-c2ccccc2)cc1 ?
inactive

----------
# System: OVCAR-5 ovarian
# assay.procedure: NCI-60 one-dose screen, 48 h (100 = growth as untreated, 0 = no growth, -100 = all killed)
# experimental.conditions: 10 µM unless noted
This is part of a sample that, as a whole, favours compounds with a hit. Of some 83,000 tested, about 20% had one in any assay.
# binarize growth: threshold 30% inclusive, high side criterion met, low side criterion not met

Please review the entries below; each comes with its answer.
Please tell me: is the compound COc1ccc(Nc2ncc(Br)c(NCCCNC(=O)C3CCC3)n2)cc1 at or over 30% in terms of growth?
criterion met

One more compound: C=CCN1C(=O)[C@]2(SC1=S)[C@H](c1cccc(Cl)c1)CN(C)[C@]21C(=O)NC2C=CC(Cl)=C[C@H]21 (some centres undefined)
criterion met

And then CN(CCCCCCCCNc1ccnc2ccccc12)Cc1ccc(-c2ccc(-c3ccc(C#N)cc3)s2)cc1 , what is it?
criterion not met

What do you get for COc1ccc(OC)c(Nc2nc3nonc3nc2Nc2cccc(Br)c2)c1 ?
criterion not met

Next compound: COc1ccc(/C(C)=C(\c2ccc(Cl)cc2)c2ccc(OCCN3CCCC3)cc2)cc1F
criterion met

Param item: COc1ccc(CN2C(=O)/C(=C\c3cc(OC)c(OC)c(OC)c3)c3ccccc32)cc1
criterion met

Continuing:
Check if growth >= 30% (inclusive). Item: COc1ccc(/C=C2\COc3ccc(O)cc3C2=O)cc1OC
criterion met

// same read-out, input: Cl.[Pt].[c-]1ccccc1-c1ccccn1.c1ccc(P(c2ccccc2)C([PH+](c2ccccc2)c2ccccc2)[PH+](c2ccccc2)c2ccccc2)cc1
criterion not met

Note, next up: COc1cc(C2C=C(c3cccc(NC(C)=O)c3)Nc3ncnn32)cc(OC)c1OC (centres undefined)
criterion met

----------
# System: HOP-92 NSCLC
# assay.procedure: NCI-60 one-dose screen, 48 h (100 = growth as untreated, 0 = no growth, -100 = all killed)
# experimental.conditions: 10 µM unless noted
This is part of a sample that, as a whole, favours compounds with a hit. Of some 83,000 tested, about 20% had one in any assay.
Catalogue of compounds with associated growth
Write the number in % without appending the unit.

Below, 5 compounds whose answers are already recorded.
I have this compound here, CC(=O)c1ccc2c(c1)CCN2 , and I need its recorded growth.
82.5

Cc1cn(C2CCCCC2)c(=O)[nH]c1=O ?
97.4

COc1cc(C(=O)Nc2cc(O)c(CC=C(C)C)c(O)c2)cc2c1O[C@]1(C)CC[C@@H](O)C(C)(C)[C@H]1C2 , same question.
-5.08

What do you get for N=C(N)c1ccc(-c2ccc(-c3ccc(Cl)c(Cl)c3)o2)cc1 ?
58.9

Please give the result for C/C(=N\NC(N)=S)c1nc2ccc(Cl)cc2[nH]1 too.
79.5

Continuing:
Reported growth for COc1cc(C(=O)/C=C/c2c(C(F)(F)F)nc3ccccn23)cc(OC)c1OC : what is it?
2.54

Another: CCOC(=O)c1c(C)[nH]c(C(=O)CCC(=O)OC)c1C
84.6

Quick one: O=C1NCC(=O)N(Cc2ccco2)[C@H]1Cc1ccccc1
88.7

Try N#Cc1c(N)n2c(nc1=Nc1ccc(Cl)cc1)sc1cc(Cl)ccc12 next.
76.6

Note, next up: CCOC(=O)c1nnn(C(Cc2ccccc2Cl)C(=O)OCC)c1C (configuration not stated)
93.5

Can you handle CC(=O)OCCc1ccccc1 next?
85.7

Moving on to CCN(CC)CCCNC(=O)c1ccc(N)cc1
101

----------
# Tested on: 786-0 renal
# assay.procedure: NCI-60 one-dose screen, 48 h
# experimental.conditions: 10 µM unless noted
The panel holds about 83,000 compounds, 20% with a hit somewhere; the sample as a whole holds those more often. The source made the active and inactive calls. The calls were made as follows: active = growth percent below 10; inactive = the rest.
Output constraint: value belongs to active, inactive

Hello, I am checking results. What call was entered for COc1cc2c(cc1OC)-c1ccc3cc4c(cc3c1N(CCCN1CCCCC1)C2)OCO4 ?
inactive

// same read-out, input: O=C1C(Cl)C(c2ccccc2Cl)N1n1cnnc1 (stereo unspecified)
inactive

Then C=C1c2c(C)nn(-c3ccc(N)cc3)c2N(C)C23CC1C1(C)c4c(C)nn(-c5ccc(N)cc5)c4N(C)C(C)(CC12)C3 (stereo unspecified) ?
inactive

More entries:
Record lookup: outcome of this test for O=C1Nc2ccccc2/C1=N/N=C/c1ccsc1 ?
inactive

Now give it for CN(C)c1ccc(C#Cc2c(F)cccc2Cl)cc1 too.
inactive

What do you have for C=CCOc1cccc(/C=C2\SC(=Nc3ccc(O)cc3)NC2=O)c1 ?
inactive

Moving on to Clc1ccc(-c2nnc(Cn3ccnc3)o2)cc1
inactive

Repeat with COc1cc(/C=C/c2nc(Nc3ccc(S(=O)(=O)Nc4cc(C)on4)cc3)c3ccccc3n2)ccc1O
inactive

Now give it for Cc1cc(-c2noc(C(F)(F)F)n2)ccc1N1CCN(c2cc(C(=O)N(C)C)no2)CC1 too.
inactive

And what about the molecule O=[N+]([O-])c1cccc(/C=C/c2ccccn2)c1 ?
inactive

----------
# Test system: SK-MEL-28 melanoma
# assay.procedure: NCI-60 one-dose screen, 48 h (100 = growth as untreated, 0 = no growth, -100 = all killed)
# experimental.conditions: 10 µM unless noted
This is part of a sample that, as a whole, favours compounds with a hit. Of some 83,000 tested, about 20% had one in any assay. Activity calls are given as the source filed them. Rule for the calls: active = growth percent below 10; inactive = the rest.
readout.type: growth

Reported growth for SK-MEL-28 melanoma, given C[C@@H]1C(=O)N(C[C@H](Cc2ccccc2)N(Cc2ccccc2)Cc2ccccc2)[C@]1(Cc1ccccc1)C(=O)OC(C)(C)C ?
92% (inactive)

Queued: O=c1oc2ccc(Cl)cc2cc1-c1cs/c(=N/N=C\c2ccc(Cl)cc2)n1/N=C/c1ccc(Cl)cc1
110% (inactive)

And O=C(Nc1cccc2[nH]c(C(F)(F)F)nc12)c1cc(Cl)ccc1Cl ?
44.3% (inactive)

Now consider CC1=CC(=O)C(C(C)C)=CC1=Nc1cc(Br)c(O)c(Br)c1 .
42.6% (inactive)

Also COC(=O)/C(=C\c1ccc(OC)cc1)C(=O)N1c2ccccc2Sc2ccccc21 , if possible.
50.9% (inactive)

***
Please state recorded growth (tested on SK-MEL-28 melanoma) of O=C(/C=C/C12c3ccccc3C(c3ccccc31)C1C(=O)NC(=O)C12)c1ccc(Cl)cc1 (stereo unspecified)
-32.1% (active)

One more compound: COc1ccc(-c2nc3ncccn3c2/C=C/C(=O)c2cc(OC)c(OC)c(OC)c2)cc1
-47.4% (active)

----------
growth by entry:
# Tested on: A498 renal
# assay.procedure: NCI-60 one-dose screen, 48 h (100 = growth as untreated, 0 = no growth, -100 = all killed)
# experimental.conditions: 10 µM unless noted
This is part of a sample that, as a whole, favours compounds with a hit. Of some 83,000 tested, about 20% had one in any assay. Activity calls are given as the source filed them. How the source made its calls: active means growth percent below 10; inactive means the rest.

Below, 5 molecules whose answers are already recorded.
# get_value(readout='growth', item= O=C(NCOC(O)C(Cl)(Cl)Cl)NCOC(O)C(Cl)(Cl)Cl (stereo not drawn) )
77.1% (inactive)

# repeat for Nc1nc(I)c2ncn(C3OC(CO)C(O)C3O)c2n1 (stereo not drawn)
103% (inactive)

Try this molecule next: CO[C@H]1/C=C/O[C@@]2(C)Oc3c(C)c(O)c4c(c3C2=O)C(=O)C(/C=N/N(c2ccccc2)c2ccccc2)=C(NC(=O)/C(C)=C\C=C\[C@H](C)[C@H](O)[C@@H](C)[C@@H](O)[C@@H](C)[C@H](OC(C)=O)[C@@H]1C)C4=O
-5.29% (active)

And CCOc1ccc2nc(-c3cccc(OCC(=O)NC(C)C)c3)nc(Nc3ccc(-c4cn[nH]c4)cc3)c2c1 ?
46.7% (inactive)

// next record Cn1ccnc1C(=O)/C=C/c1ccc(C(=O)Nc2ccc(S(F)(F)(F)(F)F)cc2)cc1
38.4% (inactive)

Next:
For the molecule shown here, CC(/C=N/NC(=O)c1cc(-c2ccco2)[nH]n1)=C\c1ccccc1 , give the reported growth.
110% (inactive)

Here is the next molecule: CCN(CC)CCNc1ccc(C)c2sc3cc(C)ccc3c(=O)c12
84.8% (inactive)

Record: COc1cc(NC(=O)c2cccc(-c3cc(=O)c4c(O)c(OC)c(OC)cc4o3)c2)cc(OC)c1OC
80.1% (inactive)

Next record, please: NC(=S)N/N=C/C(=O)O
80.3% (inactive)

Now the same for Nc1c(C(=O)c2ccccc2)nnc2ncnn12
71.2% (inactive)

Try CCNCCNc1cc(-c2ccc(C(=O)OC)cc2)c(C#N)c2nc3ccccc3n12 next.
81.9% (inactive)

Likewise for Cn1cc(-c2ccc3ncc(-c4ccc(CC(=O)Nc5cc(C(C)(C)C)nn5C)cc4)cc3c2)cn1 ?
11.4% [30 µM] (inactive)

Try the molecule COc1ccc(Nc2ncc(Br)c(NCCCNC(=O)C3CCC3)n2)cc1
26.1% (inactive)

Also need O=C(Nc1ccc(N2CCCCC2)c(Cl)c1)c1ccc(Br)o1 , thanks.
102% (inactive)

Let us now turn to CCCCNC(=O)NS(=O)(=O)c1ccc(N2N=C(c3ccc(C)cc3C)CC2c2ccc(N(C)C)cc2)cc1 (stereo not drawn)
62.6% (inactive)

Also O=C(C[C@@]1(O)C(=O)Nc2c(Cl)ccc(Cl)c21)c1ccc(C2CC2)cc1 , if possible.
-32.7% (active)
